# measurement-target: 5-HT2C receptor (Homo sapiens, UniProt P28335)
# Sequence (P28335 33-458): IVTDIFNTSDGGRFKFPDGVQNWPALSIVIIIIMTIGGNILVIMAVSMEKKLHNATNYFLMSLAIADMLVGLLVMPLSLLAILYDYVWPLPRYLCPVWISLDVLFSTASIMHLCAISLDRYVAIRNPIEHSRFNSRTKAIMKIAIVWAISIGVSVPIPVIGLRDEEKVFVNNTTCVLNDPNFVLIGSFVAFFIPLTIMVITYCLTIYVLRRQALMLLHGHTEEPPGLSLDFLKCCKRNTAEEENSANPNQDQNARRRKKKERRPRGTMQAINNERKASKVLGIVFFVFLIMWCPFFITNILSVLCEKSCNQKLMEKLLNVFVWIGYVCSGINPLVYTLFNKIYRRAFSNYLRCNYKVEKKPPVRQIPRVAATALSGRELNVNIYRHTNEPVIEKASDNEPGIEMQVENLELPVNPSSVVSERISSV
# experimental-protocol: Functional activity, FLIPR calcium assay in CHO cells expressing human 5-HT2C
# Type: cell-based
# Set-up: expressed in transfected cells; host or cells: CHO cells
# study-conditions: CHO, read-out: h5-HT2C Relative Efficacy (%)
Counter-ions that a name gives are not always drawn.

compound | Emax, %
C[C@H](N)CN1CCc2ccc(Br)cc21 | 59
NCCN1CCc2ccc([N+](=O)[O-])cc21 [Example 53, Fumarate] | 86
C[C@H](N)CN1CCc2cc(F)c(C(F)(F)F)cc21 [Example 60, Fumarate] | 81
C[C@H](N)CN1CCc2ccc(Cl)cc21 [Example 10, Fumarate] | 62
CSc1ccc2c(c1)N(C[C@H](C)N)CC2 | 87
C[C@H](N)CN1CCc2cc(F)cc(Cl)c21 | 76
CSc1cc2c(cc1F)CCN2CC(C)N (stereo not shown) | 95
C[C@H](N)CN1CCc2cc(Cl)ccc21 | 75
C[C@H](N)CN1CCc2ccc(-c3cccnc3)cc21 | 33
C[C@H](N)CN1CCc2ccc(F)cc21 | 89
C[C@H](N)CN1CCc2ccc(N3CCOCC3)cc21 [Example 49, Fumarate] | 69
C[C@@H](N)CN1CCc2ccc(Br)cc21 | 27
COc1ccc2c(c1)N(CC(C)N)CC2 (racemic) [Example 2, Hydrochloride] | 77
CCCSc1ccc2c(c1)N(C[C@H](C)N)CC2 | 83
CCc1cccc2c1N(C[C@H](C)N)CC2 | 69
NCCN1CCc2ccc(Cl)cc21 [Example 51, Fumarate] | 88
C[C@H](N)CN1CCc2cc(Br)ccc21 | 75
C[C@H](N)CN1CCc2cc(F)c(F)cc21 | 87
NCCN1CCc2ccc(Br)cc21 [Example 50, Fumarate] | 78
C[C@H](N)CN1CCc2ccc(Cl)c(F)c21 | 75
Cc1cc2c(cc1Cl)N(C[C@H](C)N)CC2 | 71
CCSc1cc2c(cc1F)CCN2C[C@H](C)N | 92

---

The entries below come with measured Emax values attached.
# measurement-target: 5-HT2C receptor (Homo sapiens)
# experimental-protocol: Functional activity, FLIPR calcium assay in CHO cells expressing human 5-HT2C
# Assay type: cell-based
# Parameters: expressed in transfected cells; host or cells: CHO cells
# study-conditions: CHO, read-out: h5-HT2C Relative Efficacy (%)
Structures can show the parent of a compound that is named as a salt.
assay-readout: Emax (%)

compound | assay-readout | value-unit | observed-measurement
Cc1ccc2c(c1)N(C[C@H](C)N)CC2 [Example 64, Fumarate] | Emax | % | 66
Cc1cccc2c1CCN2C[C@H](C)N | Emax | % | 63
C[C@@H](N)CN1CCc2cccc(Br)c21 | Emax | % | 34
CCSc1ccc2c(c1)N(C[C@H](C)N)CC2 | Emax | % | 95
C[C@H](N)CN1CCc2cccc(Br)c21 | Emax | % | 68
COc1ccc2c(c1)N(C[C@H](C)N)CC2 | Emax | % | 74

---

# measurement-target: 5-HT2A receptor (Homo sapiens)
# Sequence (P28223 whole entry): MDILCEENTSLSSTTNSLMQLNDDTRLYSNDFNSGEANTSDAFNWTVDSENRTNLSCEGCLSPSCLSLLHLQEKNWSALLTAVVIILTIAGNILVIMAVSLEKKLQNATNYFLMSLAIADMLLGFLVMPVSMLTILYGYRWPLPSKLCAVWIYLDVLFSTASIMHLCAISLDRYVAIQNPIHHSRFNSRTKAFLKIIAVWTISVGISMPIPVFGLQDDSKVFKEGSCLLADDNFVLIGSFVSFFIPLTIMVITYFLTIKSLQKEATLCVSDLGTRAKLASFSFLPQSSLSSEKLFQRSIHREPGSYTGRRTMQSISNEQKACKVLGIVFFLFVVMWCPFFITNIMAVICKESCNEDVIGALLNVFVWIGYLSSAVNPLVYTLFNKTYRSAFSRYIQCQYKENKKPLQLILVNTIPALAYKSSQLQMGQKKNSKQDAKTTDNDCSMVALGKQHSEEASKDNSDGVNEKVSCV
# experimental-protocol: Functional activity, FLIPR calcium assay in CHO cells expressing human 5-HT2A
# Format: cell-based
# Set-up: expressed in transfected cells; host or cells: CHO cells
pEC50: −log10 of the molar value. Structures can show the parent of a compound that is named as a salt.

compound | pEC50
C[C@H](N)CN1CCc2ccc(Cl)cc21 [Example 10, Fumarate] | 5.65
CCSc1cc2c(cc1F)CCN2C[C@H](C)N | 6.50
C[C@H](N)CN1CCc2ccc(Cl)c(F)c21 | 5.70
C[C@H](N)CN1CCc2c(Cl)cccc21 | 5.59
C[C@H](N)CN1CCc2cc(F)c(I)cc21 [Example 61, Fumarate] | 5.66
C[C@H](N)CN1CCc2cc(F)ccc21 | 5.50
C[C@H](N)CN1CCc2ccc(F)cc21 | 5.25
COc1ccc2c(c1)N(C[C@H](C)N)CC2 | 6.41
C[C@H](N)CN1CCc2ccc(C(F)(F)F)cc21 | 5.44
Cc1cc2c(cc1Cl)N(C[C@H](C)N)CC2 | 5.43
C[C@H](N)CN1CCc2cc(F)c(F)cc21 | 5.59
